Target: Ecdysone receptor (Nezara viridula, UniProt E5L6Y0+E5L6Y1)
Sequence (E5L6Y1 whole entry): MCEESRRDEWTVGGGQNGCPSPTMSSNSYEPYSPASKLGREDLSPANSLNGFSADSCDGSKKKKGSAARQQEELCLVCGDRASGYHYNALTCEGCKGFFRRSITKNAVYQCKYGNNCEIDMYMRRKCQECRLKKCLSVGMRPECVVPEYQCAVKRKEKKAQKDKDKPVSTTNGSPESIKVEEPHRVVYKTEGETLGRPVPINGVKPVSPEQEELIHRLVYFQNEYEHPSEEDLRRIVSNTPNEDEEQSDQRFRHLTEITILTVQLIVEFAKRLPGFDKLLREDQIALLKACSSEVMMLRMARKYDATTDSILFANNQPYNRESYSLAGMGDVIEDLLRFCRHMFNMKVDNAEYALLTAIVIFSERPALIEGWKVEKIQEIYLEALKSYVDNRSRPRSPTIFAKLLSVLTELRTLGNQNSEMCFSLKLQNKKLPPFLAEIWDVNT
Sequence (E5L6Y0 whole entry): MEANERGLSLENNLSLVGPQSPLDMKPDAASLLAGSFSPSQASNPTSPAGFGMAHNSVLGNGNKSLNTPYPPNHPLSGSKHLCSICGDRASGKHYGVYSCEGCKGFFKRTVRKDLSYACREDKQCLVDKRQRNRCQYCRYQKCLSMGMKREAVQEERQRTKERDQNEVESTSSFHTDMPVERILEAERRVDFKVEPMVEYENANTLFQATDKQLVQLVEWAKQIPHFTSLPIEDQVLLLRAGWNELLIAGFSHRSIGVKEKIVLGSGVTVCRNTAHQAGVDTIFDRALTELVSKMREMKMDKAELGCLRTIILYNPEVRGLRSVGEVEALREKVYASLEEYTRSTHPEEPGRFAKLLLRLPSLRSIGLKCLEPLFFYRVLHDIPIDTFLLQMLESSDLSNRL
Test: Binding affinity to Nezara viridula EcR11
Format: protein-complex assay
pKi: −log10 of the molar value.
property-name: pKi

compound	property-name	data-value
CCc1ccc(C(=O)NN(C(=O)c2cc(C)cc(C)c2)C(C)(C)C)cc1 [TEBUFENOZIDE]	pKi	4.60
